# credit: patent US7183260B2

# TARGET_OF_ASSAY: MCH-5 (Homo sapiens)
# Sequence (Q14790 217-374 limits assumed, species assumed): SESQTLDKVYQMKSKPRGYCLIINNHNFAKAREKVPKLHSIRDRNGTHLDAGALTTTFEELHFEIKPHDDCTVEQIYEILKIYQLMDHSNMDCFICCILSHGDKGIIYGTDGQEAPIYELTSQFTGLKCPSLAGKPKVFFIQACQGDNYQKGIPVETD
# Sequence (Q14790 385-479 limits assumed, species assumed): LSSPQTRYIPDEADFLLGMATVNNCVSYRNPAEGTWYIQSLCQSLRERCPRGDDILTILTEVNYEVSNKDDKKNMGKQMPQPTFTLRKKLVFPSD
# ASSAY_PROTOCOL: Dissociation constant Ki and irreversible rate constant k3 for irreversible inhibitors (Mch5)
# Type: biochemical
# CONDITION: continuous assay 60 min, reaction initiated by adding enzyme to substrate-inhibitor mixture

>  <MOLECULE>
CC(C)[C@H](NC(=O)C(=O)Nc1ccc(F)cc1)C(=O)N[C@@H](CC(=O)O)C(=O)COc1c(F)c(F)cc(F)c1F [Example 91]

>  <MCH-5 k3/Ki>
338,000 moles^−1 seconds^−1

$$$$
>  <MOLECULE>
C[C@H](NC(=O)C(=O)Nc1ccccc1-c1ccccc1)C(=O)N[C@@H](CC(=O)O)C(=O)COC(=O)c1c(Cl)cccc1Cl [Example 29]

>  <MCH-5 k3/Ki>
125,000 moles^−1 seconds^−1

$$$$
>  <MOLECULE>
CC(C)[C@H](NC(=O)C(=O)NC12CC3CC(CC(C3)C1)C2)C(=O)N[C@@H](CC(=O)O)C(=O)COc1c(F)c(F)cc(F)c1F [Example 89]

>  <MCH-5 k3/Ki>
59,900 moles^−1 seconds^−1

$$$$
>  <MOLECULE>
C[C@H](NC(=O)C(=O)Nc1ccc(F)cc1)C(=O)N[C@@H](CC(=O)O)C(=O)COP(=O)(c1ccccc1)c1ccccc1 [Example 43]

>  <MCH-5 k3/Ki>
2,300,000 moles^−1 seconds^−1

$$$$

###

# TARGET_OF_ASSAY: MCH-2 (Homo sapiens, UniProt P55212)
# Sequence (P55212 24-179 limits assumed): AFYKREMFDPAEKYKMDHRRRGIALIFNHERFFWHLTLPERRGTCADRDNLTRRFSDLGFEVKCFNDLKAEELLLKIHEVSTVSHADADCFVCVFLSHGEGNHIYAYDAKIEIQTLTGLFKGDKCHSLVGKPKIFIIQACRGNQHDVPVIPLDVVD
# Sequence (P55212 194-293 limits assumed): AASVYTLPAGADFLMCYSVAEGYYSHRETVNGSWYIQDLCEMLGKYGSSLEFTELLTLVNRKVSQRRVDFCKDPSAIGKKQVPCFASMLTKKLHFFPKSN
# ASSAY_PROTOCOL: Dissociation constant Ki and irreversible rate constant k3 for irreversible inhibitors (Mch2)
# Assay type: biochemical
# CONDITION: continuous assay 60 min, reaction initiated by adding enzyme to substrate-inhibitor mixture
Each entry below carries its reported log10 of Ki.
VALUE_KIND: log10 of Ki (log10 of the value in µM)

>  <MOLECULE>
C[C@H](NC(=O)C(=O)Nc1ccccc1Cl)C(=O)N[C@@H](CC(=O)O)C(=O)COP(=O)(c1ccccc1)c1ccccc1 [Example 57]

>  <log10 of Ki>
-1.89

$$$$
>  <MOLECULE>
C[C@H](NC(=O)C(=O)Nc1cc(C(C)(C)C)ccc1C(C)(C)C)C(=O)N[C@@H](CC(=O)O)C(=O)COC(=O)c1c(Cl)cccc1Cl [Example 60]

>  <log10 of Ki>
-1.31

$$$$
>  <MOLECULE>
C[C@H](NC(=O)C(=O)NCc1cccc2ccccc12)C(=O)N[C@@H](CC(=O)O)C(=O)COc1c(F)c(F)cc(F)c1F [Example 33]

>  <log10 of Ki>
-1.80

$$$$
>  <MOLECULE>
CC(C)[C@H](NC(=O)C(=O)NC1CCCc2ccccc21)C(=O)N[C@@H](CC(=O)O)C(=O)COc1c(F)c(F)cc(F)c1F (stereo partly drawn) [Example 104]

>  <log10 of Ki>
-1.89

$$$$
>  <MOLECULE>
CC(C)[C@H](NC(=O)C(=O)Nc1cnccn1)C(=O)N[C@@H](CC(=O)O)C(=O)COc1c(F)c(F)cc(F)c1F [Example 103]

>  <log10 of Ki>
-1.77

$$$$
>  <MOLECULE>
CC(C)[C@H](NC(=O)C(=O)NC(c1ccccc1)c1ccccc1)C(=O)N[C@@H](CC(=O)O)C(=O)COc1c(F)c(F)cc(F)c1F [Example 81]

>  <log10 of Ki>
0.06

$$$$

###

# TARGET_OF_ASSAY: UniProtKB P55212
# ASSAY_PROTOCOL: Dissociation constant Ki and irreversible rate constant k3 for irreversible inhibitors (Mch2)
# Assay type: biochemical
# CONDITION: continuous assay 60 min, reaction initiated by adding enzyme to substrate-inhibitor mixture
pKi: −log10 of the molar value.

>  <COMPOUND>
C[C@H](NC(=O)C(=O)Nc1ccc(F)cc1)C(=O)N[C@@H](CC(=O)O)C(=O)COC(=O)c1c(Cl)cccc1Cl [Example 44]

>  <pKi>
6.85

$$$$
>  <COMPOUND>
C[C@H](NC(=O)C(=O)Nc1ccccc1I)C(=O)N[C@@H](CC(=O)O)C(=O)COP(=O)(c1ccccc1)c1ccccc1 [Example 74]

>  <pKi>
7.11

$$$$
>  <COMPOUND>
CC(C)[C@H](NC(=O)C(=O)Nc1ccccc1Br)C(=O)N[C@@H](CC(=O)O)C(=O)COc1c(F)c(F)cc(F)c1F [Example 106]

>  <pKi>
7.72

$$$$
>  <COMPOUND>
C[C@H](NC(=O)C(=O)Nc1cccc2c1CCCC2)C(=O)N[C@@H](CC(=O)O)C(=O)COC(=O)c1c(Cl)cccc1Cl [Example 62]

>  <pKi>
7.64

$$$$
>  <COMPOUND>
C[C@H](NC(=O)C(=O)Nc1ccccc1Cl)C(=O)N[C@@H](CC(=O)O)C(=O)COP(=O)(c1ccccc1)c1ccccc1 [Example 41]

>  <pKi>
7.96

$$$$
>  <COMPOUND>
COc1ccccc1NC(=O)C(=O)N[C@H](C(=O)N[C@@H](CC(=O)O)C(=O)COc1c(F)c(F)cc(F)c1F)C(C)C [Example 95]

>  <pKi>
7.06

$$$$
>  <COMPOUND>
CC(C)[C@H](NC(=O)C(=O)Nc1c(F)c(F)nc(F)c1F)C(=O)N[C@@H](CC(=O)O)C(=O)COc1c(F)c(F)cc(F)c1F [Example 102]

>  <pKi>
7.66

$$$$
>  <COMPOUND>
CC(C)[C@H](NC(=O)C(=O)Nc1cccc2ccccc12)C(=O)N[C@@H](CC(=O)O)C(=O)COc1c(F)cc(F)cc1F [Example 6]

>  <pKi>
7.38

$$$$
>  <COMPOUND>
C/C=C/OC(=O)Oc1ccc(OCC(=O)[C@H](CC(=O)O)NC(=O)[C@@H](NC(=O)C(=O)Nc2cccc3ccccc23)C(C)C)cc1 [Example 16]

>  <pKi>
7.37

$$$$
>  <COMPOUND>
C[C@H](NC(=O)C(=O)Nc1cccc2c1CCCC2)C(=O)N[C@@H](CC(=O)O)C(=O)COC(=O)c1c(Cl)cccc1Cl [Example 49]

>  <pKi>
8.00

$$$$
>  <COMPOUND>
CC(C)[C@H](NC(=O)C(=O)Nc1cccc2ccccc12)C(=O)N[C@@H](CC(=O)O)C(=O)COc1ccnc(C(F)(F)F)n1 [Example 12]

>  <pKi>
7.02

$$$$
>  <COMPOUND>
C[C@H](NC(=O)C(=O)NCc1ccccc1)C(=O)N[C@@H](CC(=O)O)C(=O)COc1c(F)c(F)cc(F)c1F [Example 51]

>  <pKi>
7.15

$$$$
>  <COMPOUND>
C[C@H](NC(=O)C(=O)NCc1ccccc1)C(=O)N[C@@H](CC(=O)O)C(=O)COC(=O)c1c(Cl)cccc1Cl [Example 52]

>  <pKi>
7.70

$$$$

###

# TARGET_OF_ASSAY: MCH-2 (Homo sapiens)
# ASSAY_PROTOCOL: Dissociation constant Ki and irreversible rate constant k3 for irreversible inhibitors (Mch2)
# Format: biochemical
# CONDITION: continuous assay 60 min, reaction initiated by adding enzyme to substrate-inhibitor mixture
Threshold-based label: Ki under 10 nM gives yes, Ki not under 10 nM gives no.

>  <COMPOUND>
CC(C)[C@H](NC(=O)C(=O)Nc1ccc(F)cc1)C(=O)N[C@@H](CC(=O)O)C(=O)COc1c(F)c(F)cc(F)c1F

>  <TARGET_OF_ASSAY>
MCH-2 (Homo sapiens)

>  <LABEL_CLASS>
no

$$$$
>  <COMPOUND>
C[C@H](NC(=O)C(=O)Nc1ccccc1-c1ccccc1)C(=O)N[C@@H](CC(=O)O)C(=O)COC(=O)c1c(Cl)cccc1Cl

>  <TARGET_OF_ASSAY>
MCH-2 (Homo sapiens)

>  <LABEL_CLASS>
yes

$$$$
>  <COMPOUND>
CC(C)[C@H](NC(=O)C(=O)Nc1ccccc1Cl)C(=O)N[C@@H](CC(=O)O)C(=O)COc1c(F)c(F)cc(F)c1F

>  <TARGET_OF_ASSAY>
MCH-2 (Homo sapiens)

>  <LABEL_CLASS>
no

$$$$
>  <COMPOUND>
CC(C)[C@H](NC(=O)C(=O)Nc1ccccc1I)C(=O)N[C@@H](CC(=O)O)C(=O)COc1c(F)c(F)cc(F)c1F

>  <TARGET_OF_ASSAY>
MCH-2 (Homo sapiens)

>  <LABEL_CLASS>
no

$$$$
>  <COMPOUND>
CC(C)[C@H](NC(=O)C(=O)Nc1ccccc1C(F)(F)F)C(=O)N[C@@H](CC(=O)O)C(=O)COc1c(F)c(F)cc(F)c1F

>  <TARGET_OF_ASSAY>
MCH-2 (Homo sapiens)

>  <LABEL_CLASS>
no

$$$$
>  <COMPOUND>
C[C@H](NC(=O)C(=O)Nc1ccccc1Cl)C(=O)N[C@@H](CC(=O)O)C(=O)COC(=O)c1c(Cl)cccc1Cl [Example 42]

>  <TARGET_OF_ASSAY>
MCH-2 (Homo sapiens)

>  <LABEL_CLASS>
yes

$$$$
